- Tested on: Malme-3M
- experiment-description: NCI tumour cell line growth inhibition, 48 h
The source made the active and inactive calls. No stated cut-off is given here; in the data, active = GI50 up to about 1.1 µM and inactive = higher.
A collection of compounds and their measured GI50

# annotated cases, reported GI50 shown
{"compound": "Nc1ccn(C2OC(COP(=O)(O)Oc3ccccc3)C(O)C2O)c(=O)n1 (stereo unspecified)", "parameter": "GI50", "readout-value": "> 35.3 µM (inactive)"}
{"compound": "N=C(N)N/N=C/c1c(Cl)nc2n1CCS2", "parameter": "GI50", "readout-value": "> 100 µM (inactive)"}
{"compound": "Nc1ccn(C2CCC(COP(=O)(O)OCC(O)COP(=O)(O)OCC3OC(n4cc(F)c(=O)[nH]c4=O)CC3O)O2)c(=O)n1 (stereo unspecified)", "parameter": "GI50", "readout-value": "> 53.8 µM (inactive)"}
{"compound": "CCOC(=O)c1cnc2[nH]ccn2c1=O", "parameter": "GI50", "readout-value": "> 10 µM (inactive)"}
{"compound": "COc1ccc(C2=Nn3c(nc4sc5c(c4c3=O)CCCC5)SC2)cc1", "parameter": "GI50", "readout-value": "> 100 µM (inactive)"}

Please examine the following record next.
Q) Entry under review: CCN(CC)C(=S)N/N=C/c1cc(OC)ccc1O . Reported GI50?
A) 4.23 µM (inactive)
